Source listed as patent US20240279318A1.

Target: T1, AFP158/HLA-A*02:01 complex (human)
T1 construct: biotinylated on the BSP by BirA for ELISA and panning; also called biotinylated AFP158/HLA-A*02:01 complex; Bio-AFP158
Assay: SPR, crude scFv captured;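 also: Peptide–MHC complex flowed at several concentrations over sensorchip-captured scFv, Kd derived from on- and off-rates obtained from the association and dissociation curves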
For each record, write down the corresponding Kd.
Reply with just the number (in nM).

Would you mind telling me what Kd value was observed for AS170036 VL1VH1 HP110S (scFv) scFv: QSALTQPRSVSGSPGQSVTISCAGTSSDVGSENYVSWYQQHPGKAPKLMIYQVNKRASGVPDRFSGSKSGNTASLTISGLQAEDEADYYCASYRSSDHNIVFGGGTKLTVLGGGGSGGGGSGGGGSEVQLVESGGGLVQPGGSLRLSCAASGFTFSSYAMSWVRQAPGKGLEWVSTINSGTGSPYYADSVKGRFTISRDNSKNTLYLQMNSLRAEDTAVYYCAKNFFDGSWFLGPSAMDYWGQGTLVTVSSHHHHHH ? 300

// same read-out, input: AS170036 VL1VH1 HP58Q (scFv) scFv: QSALTQPRSVSGSPGQSVTISCAGTSSDVGSENYVSWYQQHPGKAPKLMIYQVNKRASGVPDRFSGSKSGNTASLTISGLQAEDEADYYCASYRSSDHNIVFGGGTKLTVLGGGGSGGGGSGGGGSEVQLVESGGGLVQPGGSLRLSCAASGFTFSSYAMSWVRQAPGKGLEWVSTINSGTGSQYYADSVKGRFTISRDNSKNTLYLQMNSLRAEDTAVYYCAKNFFDGSWFLGPPAMDYWGQGTLVTVSSHHHHHH 500
